- target_or_test_system: Adenosine receptor A1 (Homo sapiens) (UniProt P30542)
- Sequence (P30542 whole entry): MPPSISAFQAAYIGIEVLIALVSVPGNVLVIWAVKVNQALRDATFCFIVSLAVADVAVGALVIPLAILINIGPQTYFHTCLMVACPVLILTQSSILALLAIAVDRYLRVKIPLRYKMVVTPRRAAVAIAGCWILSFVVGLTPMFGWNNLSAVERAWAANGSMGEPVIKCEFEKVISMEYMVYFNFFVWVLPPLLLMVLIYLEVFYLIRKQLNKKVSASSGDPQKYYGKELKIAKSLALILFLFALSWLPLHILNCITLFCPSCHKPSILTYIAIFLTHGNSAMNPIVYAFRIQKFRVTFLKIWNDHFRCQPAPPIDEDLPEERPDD
- protocol_description: Displacement of [3H]DPCPX from human adenosine A1 receptor expressed in CHO cells at 10 uM after 120 mins by scintillation counting
measured_property: inhibition (%)

INSERT INTO measurements (smiles_structure, reported) VALUES
  ('Nc1scc(CN2CCC3(CC2)Oc2cccc(F)c2O3)c1C(=O)c1ccc(Cl)cc1', 1),
  ('CN(Cc1csc(N)c1C(=O)c1ccc(Cl)cc1)c1ccccc1', 1),
  ('Cn1c2c(c3ccccc31)CN(Cc1csc(N)c1C(=O)c1ccc(Cl)cc1)CC2', 2),
  ('CC(C)N(Cc1c(Br)sc(N)c1C(=O)c1ccc(Cl)cc1)C(C)C', 1),
  ('CCN(CC)Cc1csc(N)c1C(=O)c1ccc(Cl)cc1', 0);

====

Listed next: entries and their corresponding inhibition.
- target_or_test_system: Adenosine receptor A2a (Homo sapiens) (UniProt P29274)
- Sequence (P29274 whole entry): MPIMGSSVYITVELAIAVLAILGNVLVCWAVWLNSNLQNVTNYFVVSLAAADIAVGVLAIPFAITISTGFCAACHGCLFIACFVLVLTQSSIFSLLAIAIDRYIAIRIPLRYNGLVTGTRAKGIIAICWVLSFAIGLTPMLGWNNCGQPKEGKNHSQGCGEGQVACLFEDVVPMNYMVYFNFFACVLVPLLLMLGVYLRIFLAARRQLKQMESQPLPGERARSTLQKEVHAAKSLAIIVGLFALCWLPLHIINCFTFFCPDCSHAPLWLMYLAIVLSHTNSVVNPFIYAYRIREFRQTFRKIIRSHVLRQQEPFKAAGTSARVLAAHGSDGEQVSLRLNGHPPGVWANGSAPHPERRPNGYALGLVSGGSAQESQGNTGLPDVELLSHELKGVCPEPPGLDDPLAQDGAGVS
- protocol_description: Displacement of [3H]ZM 241385 from human adenosine A2A receptor expressed in CHO cells at 10 uM after 60 mins by scintillation counting
- Format: cell-based
measured_property: inhibition (%)

INSERT INTO measurements (smiles_structure, measured_property, reported) VALUES
  ('C=CCN(CC=C)Cc1c(-c2ccccc2)sc(N)c1C(=O)c1ccc(Cl)cc1', 'inhibition', 1),
  ('Nc1sc(-c2ccccc2)c(CN2CCCCC2)c1C(=O)c1ccc(Cl)cc1', 'inhibition', 1),
  ('Nc1scc(CN2CCc3ccccc3C2)c1C(=O)c1ccc(Cl)cc1', 'inhibition', 3),
  ('CCN(CC)Cc1c(-c2ccccc2)sc(N)c1C(=O)c1ccc(Cl)cc1', 'inhibition', 5),
  ('CCN(CC)Cc1csc(N)c1C(=O)c1ccc(Cl)cc1', 'inhibition', 1),
  ('CCN(Cc1csc(N)c1C(=O)c1ccc(Cl)cc1)c1ccccc1', 'inhibition', 0),
  ('CN(Cc1csc(N)c1C(=O)c1ccc(Cl)cc1)c1ccc(C(F)(F)F)cc1', 'inhibition', 0),
  ('Nc1scc(CN2CCc3[nH]c4ccccc4c3C2)c1C(=O)c1ccc(Cl)cc1', 'inhibition', 1),
  ('Nc1scc(CN2CCC3(CC2)Oc2ccccc2O3)c1C(=O)c1ccc(Cl)cc1', 'inhibition', 1),
  ('Cn1c2c(c3ccccc31)CN(Cc1csc(N)c1C(=O)c1ccc(Cl)cc1)CC2', 'inhibition', 1);

====

- target_or_test_system: Adenosine receptor A1 (Homo sapiens) (UniProt P30542)
- protocol_description: Allosteric enhancement of human adenosine A1 receptor expressed in CHO cells assessed as increase of CCPA Ki at 10 uM after 90 mins by [3H]DPCPX radioligand binding assay
- Type: cell-based
Assign labels as follows, please: true (1) for fold change (FC) below 2; false (0) for fold change (FC) equal to or exceeding 2.

INSERT INTO measurements (compound, target_or_test_system, category_label) VALUES
  ('CN(Cc1ccccc1)Cc1csc(N)c1C(=O)c1ccc(Cl)cc1', 'Adenosine receptor A1 (Homo sapiens) (UniProt P30542)', 'false (0)'),
  ('CN(Cc1csc(N)c1C(=O)c1ccc(Cl)cc1)c1ccc(Cl)cc1', 'Adenosine receptor A1 (Homo sapiens) (UniProt P30542)', 'false (0)'),
  ('Nc1scc(CN2CCN3c4ccc(Cl)cc4CC3C2)c1C(=O)c1ccc(Cl)cc1 (stereo not given)', 'Adenosine receptor A1 (Homo sapiens) (UniProt P30542)', 'true (1)'),
  ('Nc1scc(CN2CCn3c(cc4cc(F)ccc43)C2)c1C(=O)c1ccc(Cl)cc1', 'Adenosine receptor A1 (Homo sapiens) (UniProt P30542)', 'false (0)'),
  ('CCN(CC)Cc1c(-c2ccccc2)sc(N)c1C(=O)c1ccc(Cl)cc1', 'Adenosine receptor A1 (Homo sapiens) (UniProt P30542)', 'false (0)'),
  ('Nc1scc(CN2CCc3[nH]c4ccccc4c3C2)c1C(=O)c1ccc(Cl)cc1', 'Adenosine receptor A1 (Homo sapiens) (UniProt P30542)', 'true (1)'),
  ('Cc1sc(N)c(C(=O)c2cccc(C(F)(F)F)c2)c1C', 'Adenosine receptor A1 (Homo sapiens) (UniProt P30542)', 'true (1)'),
  ('CCN(CC)Cc1csc(N)c1C(=O)c1ccc(Cl)cc1', 'Adenosine receptor A1 (Homo sapiens) (UniProt P30542)', 'true (1)'),
  ('Nc1scc(CN2CCc3ccccc3C2)c1C(=O)c1ccc(Cl)cc1', 'Adenosine receptor A1 (Homo sapiens) (UniProt P30542)', 'false (0)'),
  ('Nc1scc(CN2CCc3[nH]c4ccc(Cl)cc4c3C2)c1C(=O)c1ccc(Cl)cc1', 'Adenosine receptor A1 (Homo sapiens) (UniProt P30542)', 'true (1)');

Reference source: ChEMBL document CHEMBL2417436
